Biological target: T1, human TIGIT expressed on cells (human, UniProt Q495A1 22-244)
T1 construct: whole, on cells; on Jurkat E6.1 cells transduced with human TIGIT, on Promega TIGIT Effector cells or on human primary T cells; the assay field says which; also called hTIGIT; Jurkat-hTIGIT
T1 sequence (looked up): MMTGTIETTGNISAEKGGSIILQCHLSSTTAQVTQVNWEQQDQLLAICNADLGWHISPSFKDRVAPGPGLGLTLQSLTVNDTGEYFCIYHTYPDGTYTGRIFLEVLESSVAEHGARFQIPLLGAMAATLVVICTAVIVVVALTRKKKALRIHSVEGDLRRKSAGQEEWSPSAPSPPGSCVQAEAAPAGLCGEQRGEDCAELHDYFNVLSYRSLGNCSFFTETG
Assay: flow cytometry, 100 nM Ab, Jurkat-hTIGIT vs untransfected

Binder	Unit Tag	FON (Fold Over Negative)
anti-TIGIT antibody clone 32919 (IgG) (antibody, V domains shown, human IgG; light chain optimised from 31288) VH: QLQLQESGPGLVKPSETLSLTCTVSGGSISSGSYYLAWIRQPPGKGLEWIGSIFRSGSTYYNPSLESRVTISVDTSKNQFSLKLSSVTAADTAVYYCAIEGANFKDFGYVAFDIWGQGTTVTVSS VL: EIVLTQSPATLSLSPGERATLSCRASQSVSSYLAWYQQKPGQAPRLLIYDASNRATGIPARFSGSGSGTDFTLTISSLEPEDFAVYYCQQENPRPRTFGGGTKVEIK	fold	680
anti-TIGIT antibody clone 29527 (IgG) (antibody, V domains shown) VH: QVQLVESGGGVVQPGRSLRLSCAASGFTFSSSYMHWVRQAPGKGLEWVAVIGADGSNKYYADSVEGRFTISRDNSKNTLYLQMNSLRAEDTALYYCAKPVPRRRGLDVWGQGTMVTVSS VL: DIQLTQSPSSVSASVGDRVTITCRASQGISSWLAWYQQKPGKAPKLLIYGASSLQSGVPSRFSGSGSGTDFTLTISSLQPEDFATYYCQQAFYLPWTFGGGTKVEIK	fold	142
anti-TIGIT antibody clone 29523 (IgG) (antibody, V domains shown) VH: EVQLVESGGGVVQPGRSLRLSCAASGFTFGSYYMHWVRQAPGKGLEWVAVIWPDGSNKLYADSVKGRFTISRDNSKNTLYLQMNSLRAEDTALYYCAKPVPKSRALDVWGQGTMVTVSS VL: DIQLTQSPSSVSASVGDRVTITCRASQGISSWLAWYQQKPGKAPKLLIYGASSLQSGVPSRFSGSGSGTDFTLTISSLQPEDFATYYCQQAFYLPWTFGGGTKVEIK	fold	150
